# Tested On: Steroidogenic factor 1 (Homo sapiens, UniProt Q13285)
# Sequence (Q13285 whole entry): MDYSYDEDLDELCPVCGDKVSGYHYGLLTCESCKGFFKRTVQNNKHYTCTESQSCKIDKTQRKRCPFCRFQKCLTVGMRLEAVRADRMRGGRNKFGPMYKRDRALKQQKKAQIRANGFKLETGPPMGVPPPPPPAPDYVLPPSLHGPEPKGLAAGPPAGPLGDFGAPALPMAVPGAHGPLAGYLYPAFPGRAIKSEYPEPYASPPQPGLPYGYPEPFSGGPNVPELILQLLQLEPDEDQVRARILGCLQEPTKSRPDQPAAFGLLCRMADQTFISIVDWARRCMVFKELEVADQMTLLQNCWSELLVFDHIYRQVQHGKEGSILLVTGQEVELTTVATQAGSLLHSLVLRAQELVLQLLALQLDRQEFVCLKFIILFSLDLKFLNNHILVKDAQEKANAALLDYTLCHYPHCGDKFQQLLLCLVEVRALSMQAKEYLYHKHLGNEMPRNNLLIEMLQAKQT
# Protocol Details: Transactivation Cell-Based Assay
pEC50: −log10 of the molar value.
Quantity Measured: pEC50

a = CCOC(=O)C(C)Oc1cccc2c(=O)n(CC(=O)NCCc3ccccc3)ccc12 (stereo unspecified)
b = CCC(C)Oc1cccc2c(=O)n(CC(=O)Nc3ccc4c(c3)OCCO4)ccc12 (stereo unspecified)
c = CCOC(=O)C(C)Oc1cccc2c(=O)n(CC(=O)Nc3ccc(OCC)cc3)ccc12 (stereo unspecified)
d = CCOC(=O)C(C)Oc1cccc2c(=O)n(CC(=O)Nc3ccc(CC)cc3)ccc12 (stereo unspecified)
List items by pEC50 in falling order. Answer by listing the labels in the requested order.
d, c, a, b
(d: 6.96, c: 6.72, a: 6.44, b: 5.10)

---

# Tested On: UniProtKB Q13285
# Protocol Details: Transactivation Cell-Based Assay
# Procedure: The assay was to monitor the SF-1 activation state via co-transfection of CHO-K1 cells with a plasmid encoding a Gal4-SF-1 chimerical transcription factor, pGal4DBD-SF-1-LBD, and a second plasmid driving luciferase expression under control of 5 multimerized Gal4 binding sites. […] After incubation, the luciferase assay was performed, and light emission was measured for 30 seconds with the ViewLux reader (PerkinElmer, Turku, Finland). […]
pEC50: −log10 of the molar value.
Quantity Measured: pEC50

Recorded results for 3 compounds are shown here.
CCCCNC(=O)Cn1ccc2c(OC(C)C(=O)OCC)cccc2c1=O (configuration not stated) = 5.01
CCCCOc1cccc2c(=O)n(CC(=O)Nc3ccc4c(c3)OCCO4)ccc12 = 4.86
CCOC(=O)C(C)Oc1cccc2c(=O)n(CC(=O)NC3CCCCC3)ccc12 (configuration not stated) = 5.75

I = CCCCc1ccc(NC(=O)Cn2ccc3c(OC(C)C(=O)OCC)cccc3c2=O)cc1 (configuration not stated)
II = CCOC(=O)C(C)Oc1cccc2c(=O)n(CC(=O)Nc3ccc(OC)cc3)ccc12 (configuration not stated)
III = CCOC(=O)C(C)Oc1cccc2c(=O)n(CCC(=O)Nc3ccc4c(c3)OCCO4)ccc12 (configuration not stated)
Reorder: pEC50, max to min. Answer by listing the labels in the requested order.
II, I, III
(II: 6.70, I: 6.44, III: 5.07)

1 = CCOC(=O)C(C)Oc1cccc2c(=O)n(CC(=O)NCc3ccco3)ccc12 (configuration not stated)
2 = CCOC(=O)C(C)(C)Oc1cccc2c(=O)n(CC(=O)Nc3ccc4c(c3)OCCO4)ccc12
Just tell me: smaller pEC50 value, 1 or 2 ? Output the label that corresponds to your choice.
1
(1: 5.33, 2: 6.23)

---

# Tested On: Steroidogenic factor 1 (Homo sapiens)
# Protocol Details: Transactivation Cell-Based Assay
# Procedure: The assay was to monitor the SF-1 activation state via co-transfection of CHO-K1 cells with a plasmid encoding a Gal4-SF-1 chimerical transcription factor, pGal4DBD-SF-1-LBD, and a second plasmid driving luciferase expression under control of 5 multimerized Gal4 binding sites. […] After incubation, the luciferase assay was performed, and light emission was measured for 30 seconds with the ViewLux reader (PerkinElmer, Turku, Finland). […]
pEC50: −log10 of the molar value.
Quantity Measured: pEC50

CCOC(=O)C(C)Oc1cccc2c(=O)n(CC(=O)Nc3ccc4c(c3)OCCO4)ccc12 (centres undefined) = 6.12
CCCCC(C)Oc1cccc2c(=O)n(CC(=O)Nc3ccc4c(c3)OCCO4)ccc12 (centres undefined) = 6.06
CCOC(=O)C(C)Oc1cccc2c(=O)n(CC(=O)Nc3ccc(OC(F)(F)F)cc3)ccc12 (centres undefined) = 6.70
CCOC(=O)C(C)Oc1cccc2c(=O)n(CC(=O)NCc3ccc(F)cc3)ccc12 (centres undefined) = 6.17

A = CCOC(=O)C(C)Oc1cccc2c(=O)n(CC(=O)N(C)c3ccc4c(c3)OCCO4)ccc12 (centres undefined)
B = CCOC(=O)C(C)Oc1cccc2c(=O)n(CC(=O)Nc3ccc(C)cc3)ccc12 (centres undefined)
Just tell me: smaller pEC50 value, A or B ? Output the label that corresponds to your choice.
A

a = CCOC(=O)C(C)Oc1cccc2c(=O)n(CC(=O)NCc3ccccc3)ccc12 (centres undefined)
b = CCOC(=O)C(C)Oc1cccc2c(=O)n(CC(=O)Nc3ccc([N+](=O)[O-])cc3)ccc12 (centres undefined)
c = CCOC(=O)C(C)Oc1cccc2c(=O)n(CC(=O)NCc3ccc4c(c3)OCO4)ccc12 (centres undefined)
Reorder: pEC50, max to min. Answer by listing the labels in the requested order.
c, b, a

Value source: BindingDB's records for doi:10.1016/j.bmcl.2008.03.027
